# Target Of Assay: c-Src SH2;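 further: peptide library displayed on the E. coli surface as eCPX fusions, selected cells deep-sequenced, score is each peptide's frequency after selection divided by its frequency in the input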
# Method Summary: SH2 binding enrichment of the phosphorylated peptide, bacterial display (enrichment ratio); higher = better substrate or ligand; peptides without Tyr show the background
Measured Parameter: SH2 binding enrichment

{"columns": ["Record Sequence", "Target Of Assay", "SH2 binding enrichment"],
 "data": [
  ["PVDTFYDSTRG [DYNC2H1_Y2231_M2227V_YF]", "c-Src SH2", 0.503]
]}

[1] PTTKTYFPHFF [HBA1_Y43_D48Y_YF]
[2] PSQRPYVYYYS [PTEN_Y174_R173P]
stdin: Identify the item whose SH2 binding enrichment is the smaller number: 1 or 2 Your choice should be expressed through its label.
stdout: 1
(1: 0.683, 2: 3.29)
